For each of the molecules below, state its fold induction at 10 µM.
Test system: primary human total T-cells
Assay: T-cell activation assessed by CD69 expression
Format: cell-based
Details: CD3 alone stimulation, CD4 T-cells, 10 μM, read-out: % CD69+ (CD4)

Check out these entries, answers already filled in.
C[C@H](Cc1nncn1C)c1cccc(N2Cc3c(cc(CN4CC[C@H](F)C4)cc3C(F)(F)F)C2=O)c1 [Compound 399]
> 1.6
Cn1cnnc1[C@@H]1C[C@@H]1c1cccc(N2Cc3c(cccc3C(F)(F)F)C2=O)c1 [Compound 282]
1.2 to 1.4
Cc1cc(C(=O)Nc2cccc([C@@H](C)Cc3nncn3C)c2)nc(C2CC2)n1 [Compound 325]
> 1.6

List fold induction at 10 µM for every entry below, keeping the order given.
1. Cn1cnnc1CC1(c2cccc(N3Cc4c(cc(CN5CC[C@H](C#N)C5)cc4C(F)(F)F)C3=O)c2)COC1 [Compound 422]
2. Cc1n[nH]c(C)c1-c1cc2c(c(C(F)(F)F)c1)CN(c1cccc(C3(Cc4nncn4C)COC3)c1)C2=O [Compound 385]
3. Cn1cnnc1C(F)(F)[C@](C)(F)c1cccc(N2Cc3c(cc(CN4CC[C@@H](C#N)C4)cc3C(F)(F)F)C2=O)c1 [Compound 455]
4. Cn1cnnc1C(F)(F)[C@](C)(F)c1cccc(N2Cc3c(cc(C(=O)N4CC[C@H](O)C4)cc3C(F)(F)F)C2=O)c1 [Compound 438]

Ans.
1. > 1.6
2. > 1.6
3. > 1.6
4. > 1.6

Qu. I would be grateful if you could share the reported fold induction at 10 µM for Cc1cc2c(c(C3CC3)n1)CN(c1cccc([C@H](C)Cc3nncn3C)c1)C2=O [Compound 372] .
Ans. 1.2 to 1.4

###

For each of the molecules below, state its fold induction at 1.11 µM.
System: primary human total T-cells
Assay: T-cell activation assessed by cell proliferation (Cell Trace Violet)
Assay type: cell-based
Conditions: CD3/CD28 stimulation, CD8 T-cells, 1.11 μM, read-out: % CP (cell proliferation) (CD8)

Check out these entries, answers already filled in.
COC1CN(Cc2cc3c(c(C(F)(F)F)c2)CN(c2cccc([C@@](C)(F)C(F)(F)c4nncn4C)c2)C3=O)C1 [Compound 452]
3.01 to 4
Cn1cnnc1C(F)(F)[C@](C)(F)c1cccc(N2Cc3c(cc(C(=O)N4CC[C@H](O)C4)cc3C(F)(F)F)C2=O)c1 [Compound 438]
< 2
C[C@H](Cc1nncn1C)c1cccc(N2Cc3c(cccc3C(F)(F)F)C2=O)c1 [Compound 255a]
< 2

List fold induction at 1.11 µM for every entry below, keeping the order given.
1. Cn1cnnc1CC1(c2cccc(N3Cc4c(cc(CN5CCC6(CC6)C5)cc4C(F)(F)F)C3=O)c2)COC1 [Compound 520]
2. C[C@H](Cc1nncn1C)c1cccc(NC(=O)c2n[nH]c3c2CCC3)c1 [Compound 313]
3. C[C@H](Cc1nncn1C)c1cccc(N2Cc3c(cc(CN4CC[C@](C)(O)C4)cc3C(F)(F)F)C2=O)c1 [Compound 398]
4. Cn1cnnc1CC1(c2cccc(N3Cc4c(cc(CN5CC[C@H](C#N)C5)cc4C(F)(F)F)C3=O)c2)COC1 [Compound 422]
5. CNCc1ccc(C(=O)Nc2cccc([C@H](C)Cc3nncn3C)c2)nc1C1CC1 [Compound 376]
6. Cn1cnnc1C(F)(F)[C@](C)(F)c1cccc(N2Cc3c(cc(CN4CC[C@@H](F)C4)cc3C(F)(F)F)C2=O)c1 [Compound 450]

Ans.
1. > 4
2. 3.01 to 4
3. 3.01 to 4
4. 2.01 to 3
5. 3.01 to 4
6. 2.01 to 3
